# Tested on: PKC-neg-40B-Luc minigene in 293T cells
# test: Luciferase splicing reporter screen of the LOPAC 1280 library
# Format: cell-based
# recorded conditions: luciferase fold-increase over the Average control (DMSO) norm; 293T reporter cells, 24 hours
# Experimental: Briefly, compounds from the LOPAC™ library were dissolved in DMSO. 293T cells (which express predominantly FGFR2-IIIc) which stably express the PKC-neg-40B-Luc minigene, as described in Example 1, were incubated with the compounds or with a DMSO control for 24 hours. After the incubation period, BriteLite luciferase readout reagent was added to each well and the plates were read on an Analyst HT multimode plate reader (Molecular Devices). […]
Give Avg DMSO Norm for every item shown.
Give the value in fold but do not write fold after it.

The recorded Avg DMSO Norm for entry CCNC(=O)[C@H]1O[C@@H](n2cnc3c(NCc4ccccc4)ncnc32)[C@H](O)[C@@H]1O [N6-Benzyl-5′-N-ethylcarboxamidoadenosine] equals 1.953

The recorded Avg DMSO Norm for entry C[C@H]1C[C@H]2[C@@H]3CCC4=CC(=O)C=C[C@]4(C)[C@@]3(Cl)[C@@H](O)C[C@]2(C)[C@@]1(O)C(=O)CO [Beclomethasone] equals 1.996

The recorded Avg DMSO Norm for entry COc1cccc(NC(=O)/C=C/c2ccc(Cl)cc2)c1 [SB-366791] equals 1.795

The recorded Avg DMSO Norm for entry COc1cccc(-c2cc(=O)c3ccccc3o2)c1N [PD 98,059] equals 1.923

The recorded Avg DMSO Norm for entry CC(C)NC[C@H](O)c1ccc(O)c(O)c1.O=C(O)C(O)C(O)C(=O)O [R(−)-Isoproterenol(+)-bitartrate] equals 1.943

The recorded Avg DMSO Norm for entry CCCCCCCCCCCCCC(=O)O[C@@H]1[C@@H](C)[C@@]2(O)[C@@H](C=C(CO)C[C@]3(O)C(=O)C(C)=C[C@@H]23)[C@@H]2C(C)(C)[C@]12OC(C)=O [Phorbol 12-myristate 13-acetate] equals 4.122

The recorded Avg DMSO Norm for entry NC(N)=NC(=O)c1nc(Cl)c(N2CCCCCC2)nc1N [5-(N,N-hexamethylene)amiloride] equals 1.762

The recorded Avg DMSO Norm for entry CNCC(O)c1ccc(O)c(O)c1.Cl (racemic) [(±)-Epinephrine hydrochloride] equals 1.674

The recorded Avg DMSO Norm for entry Clc1ccccc1C(c1ccccc1)(c1ccccc1)n1ccnc1 [Clotrimazole, 1-(o-Chlorotrityl)-imidazole] equals 1.792

The recorded Avg DMSO Norm for entry OC[C@H]1O[C@@H](n2cnc3c(Nc4ccccc4)ncnc32)[C@H](O)[C@@H]1O [N6-Phenyladenosine] equals 2.095
